The values you see were collected from patent US9440938B2.

# Target System: DP receptor (Homo sapiens)
# Construct: endogenous in cells
# Sequence (Q13258 whole entry): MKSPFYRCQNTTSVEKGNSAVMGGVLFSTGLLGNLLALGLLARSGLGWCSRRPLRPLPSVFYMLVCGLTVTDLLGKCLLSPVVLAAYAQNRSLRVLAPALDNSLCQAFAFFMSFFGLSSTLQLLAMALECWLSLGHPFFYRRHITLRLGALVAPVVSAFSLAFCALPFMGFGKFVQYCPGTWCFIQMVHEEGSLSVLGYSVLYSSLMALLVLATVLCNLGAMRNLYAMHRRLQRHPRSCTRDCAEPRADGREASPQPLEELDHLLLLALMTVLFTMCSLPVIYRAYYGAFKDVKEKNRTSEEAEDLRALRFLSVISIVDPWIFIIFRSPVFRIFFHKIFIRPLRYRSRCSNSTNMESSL
# Assay Summary: Receptor binding assay, [3H]-PGD2, platelet membrane
# Recorded Conditions: [3H]-PGD2, human platelet membrane
Entries and their Ki
Numbers only; they are read as nM.

Consider the worked cases shown below.
> print(dat)
                                   compound  test.readout  recorded.value
1  CC(C)Oc1ccc(S(=O)(=O)N2CCN(c3ccc(C(=O)Nc4nncs4)c(OCC(=O)O)c3)CC2)cc1 [II-110]            Ki            9800
2  CC(C)Oc1ccc(S(=O)(=O)N2CCN(c3cc(Cl)cc(OCC(=O)O)c3)CC2)cc1 [II-26]            Ki             630
3  CC(C)Oc1ccc(S(=O)(=O)N2CCN(c3ccc(NC(=O)c4ccco4)c(OCC(=O)O)c3)CC2)cc1 [II-24]            Ki            1700
4  CC(C)Oc1ccc(S(=O)(=O)N2CCN(c3ccc(C(=O)Nc4cc(C5CC5)n[nH]4)c(OCC(=O)O)c3)CC2)cc1 [II-112]            Ki            9300
5  CC(C)Oc1ccc(S(=O)(=O)N2CCN(c3ccc(Cl)c(OCC(=O)O)c3)CC2)cn1 [II-27]            Ki            1400
6  CC(C)Oc1ccc(S(=O)(=O)N2CCN(c3cc(Br)cc(OCC(=O)O)c3)CC2)cc1 [II-17]            Ki             570

Query :: What does the record list as Ki for CC(C)Oc1ccc(S(=O)(=O)N2CCN(c3ccc(Cl)c(OCC(=O)O)c3)CC2C)cc1 (centres unmarked) [II-43] ?
Result :: 2300

Query :: Follow-up item: CC(C)Oc1ccc(S(=O)(=O)N2CCN(c3ccc(-c4nccs4)c(OCC(=O)O)c3)CC2)cc1 [II-92]
Result :: 580

====

# Target System: DP receptor (Homo sapiens)
# Construct: endogenous in cells
# Assay Summary: Receptor binding assay, [3H]-PGD2, platelet membrane
# Recorded Conditions: [3H]-PGD2, human platelet membrane
pKi by entry:
Give only the number. pKi is defined as minus log10 of concentration in molar units.

Recorded results for 4 compounds are shown here.
> print(dat)
                                   compound  recorded.value
1  CC(C)Oc1ccc(S(=O)(=O)N2CCN(c3cc(OCC(=O)O)cc(-c4cccs4)c3)CC2)cc1 [II-51]            6.28
2  CC(C)Oc1ccc(S(=O)(=O)N2CCN(c3ccc(-c4ncco4)c(OCC(=O)O)c3)CC2)cc1 [II-74]            6.62
3  Cc1cnc(-c2ccc(N3CCN(S(=O)(=O)c4ccc(OC(C)C)cc4)CC3)cc2OCC(=O)O)o1 [II-73]            5.96
4  CC(C)Oc1ccc(S(=O)(=O)N2CCN(c3ccc(C(=O)Nc4nccs4)c(OCC(=O)O)c3)CC2)cc1 [II-108]            4.89

Query :: Given the compound CC(C)Oc1ccc(S(=O)(=O)N2CCN(c3cc(F)c(F)c(OCC(=O)O)c3)CC2)cc1 [II-16] , what is its reported pKi?
Result :: 6.06

Query :: Now try CC(C)Oc1ccc(S(=O)(=O)N2CCN(c3ccc(Cl)c(OCC(=O)O)c3)CC2)cc1 [II-10] .
Result :: 6.19

Query :: # repeat for CC(C)Oc1ccc(S(=O)(=O)N2CCN(c3ccc4ncn(CC(=O)O)c4c3)CC2)cc1 [II-134]
Result :: 5.07
